- system: T1, Cynomolgus CD3 on HSC-F cells (cynomolgus, UniProt Q95LI5 22-198)
- T1 construct: whole, on cells; Target is the endogenous CD3 complex on cells; also called Cyno CD3 HSC-F cells; Cyno CD3+ HSC-F cells
- T1 sequence (Q95LI5 22-198): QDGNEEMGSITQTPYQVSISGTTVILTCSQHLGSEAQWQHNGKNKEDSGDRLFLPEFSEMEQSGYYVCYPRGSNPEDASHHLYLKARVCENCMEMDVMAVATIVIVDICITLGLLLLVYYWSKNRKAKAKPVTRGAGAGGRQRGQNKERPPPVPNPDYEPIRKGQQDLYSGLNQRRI
- test: flow cytometry, 100 nM IgG1, pH 7.4
assayEndpoint: NCB (Normalized Cell Binding)

>>> val("Antibody No. V015 (ADI-76358) IgG1 (antibody, V domains shown, IgG1, CHO-produced) VH: QVQLVQSGAEVKKPGASVKVSCKASGFNIKDYYMHWVRQAPGQRLEWMGWIDLENADTIYDAKFQGRVTITRDTSASTAYMELSSLRSEDTAVYYCARDQYGRYFYDVWGQGTLVTVSS VL: DIVMTQSPDSLAVSLGERATINCKSSQSLLNARTGKNYLAWYQQKPGQPPKLLIYWASTRESGVPDRFSGSGSGTDFTLTISSLQAEDVAVYYCKQSYSRRTFGGGTKVEIK")
369
>>> val("Antibody No. A003 (ADI-26913) IgG1 (antibody, V domains shown, IgG1, CHO-produced) VH: QVQLVQSGAEVKKPGASVKVSCKASGFNIKDYYMHWVRQAPGQRLEWMGWIDLENANTIYDAKFQGRVTITRDTSASTAYMELSSLRSEDTAVYYCARDQYGRYFYDVWGQGTLVTVSS VL: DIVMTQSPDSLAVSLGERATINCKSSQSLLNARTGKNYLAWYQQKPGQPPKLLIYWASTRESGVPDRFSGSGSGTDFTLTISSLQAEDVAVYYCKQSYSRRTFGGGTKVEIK")
367
>>> val("Antibody No. V010 (ADI-70327) IgG1 (antibody, V domains shown, IgG1, CHO-produced) VH: QVQLVQSGAEVKKPGASVKVSCKASGFDIKDYYMHWVRQAPGQRLEWIGWIELENDDTVYDAKFQGRVTITRDTSASTAYMELSSLRSEDTAVYYCARDAYGRYFYDVWGQGTLVTVSS VL: DIVMSQSPDSLAVSLGERATINCKSSQSLLNARTGKNYLAWYQQKPGQPPKLLIYWASTRSSGVPDRFSGSGSGTDFTLTISSLQAEDVAVYYCVQSYFRRTFGGGTKVEIK")
378
